- EXPERIMENTAL TARGET: Polθ theta (1-899) (hPolQ) (Homo sapiens (Human), UniProt O75417)
- Sequence (O75417 1-899): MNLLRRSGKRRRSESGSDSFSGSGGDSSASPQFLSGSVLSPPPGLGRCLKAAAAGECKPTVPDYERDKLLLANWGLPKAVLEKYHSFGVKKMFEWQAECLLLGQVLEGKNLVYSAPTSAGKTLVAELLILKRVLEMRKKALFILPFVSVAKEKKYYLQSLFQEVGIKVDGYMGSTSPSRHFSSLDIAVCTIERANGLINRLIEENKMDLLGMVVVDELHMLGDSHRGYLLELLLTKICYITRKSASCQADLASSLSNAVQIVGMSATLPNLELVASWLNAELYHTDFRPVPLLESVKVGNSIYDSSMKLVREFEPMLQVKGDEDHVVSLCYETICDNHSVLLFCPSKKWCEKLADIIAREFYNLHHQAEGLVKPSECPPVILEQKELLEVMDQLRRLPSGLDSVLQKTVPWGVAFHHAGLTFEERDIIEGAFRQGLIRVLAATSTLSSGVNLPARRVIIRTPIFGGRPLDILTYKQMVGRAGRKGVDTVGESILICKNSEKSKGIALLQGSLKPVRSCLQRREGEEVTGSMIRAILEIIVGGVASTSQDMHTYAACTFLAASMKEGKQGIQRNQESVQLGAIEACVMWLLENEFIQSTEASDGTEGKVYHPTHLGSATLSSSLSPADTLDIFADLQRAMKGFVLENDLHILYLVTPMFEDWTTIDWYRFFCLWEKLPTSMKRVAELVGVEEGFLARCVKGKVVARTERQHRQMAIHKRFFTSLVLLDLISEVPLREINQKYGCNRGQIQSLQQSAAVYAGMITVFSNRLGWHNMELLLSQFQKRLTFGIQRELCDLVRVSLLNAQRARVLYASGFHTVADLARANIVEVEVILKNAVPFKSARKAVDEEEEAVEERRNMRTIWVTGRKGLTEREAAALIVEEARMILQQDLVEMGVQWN
- EXPERIMENT NOTES: Biological Assay 1: Polθ ATPase activity, NADH oxidation-coupled enzymatic assay (10 nM enzyme, 30 min)
- Type: biochemical
- CONDITION SET: Polθ (1-899) 10 nM, 100 μM ATP, 300 nM dT50 ssDNA; Examples 1 to 268; read-out: ATPase NADH coupling:Standard Screening:hPolQ IC50
pIC50: −log10 of the molar value.
Can you tell me pIC50 for the items I'm about to list?

(Q) Give the value of pIC50 reported for the following: COc1cnc(Cl)cc1-c1cc(C)ncc1C(=O)Nc1nnc(OC[C@H]2CC[C@H](F)CC2)s1 [Example 197]
(A) ≥ 6.70

(Q) Give the value of pIC50 reported for the following: COc1cnc(C)cc1-c1cc(C)ncc1C(=O)Nc1nnc(OCc2ccc(C(C)(C)O)cn2)s1 [Example 76]
(A) ≥ 6.70

(Q) Give the value of pIC50 reported for the following: COc1cccc(F)c1-c1cc(C)ncc1C(=O)Nc1nnc(OCc2ccc3c(n2)CCOC3)s1 [Example 102]
(A) ≥ 6.70

(Q) Give the value of pIC50 reported for the following: COc1cccc(F)c1-c1cc(C)ncc1C(=O)Nc1nnc(OCc2ccc3c(n2)CCC[C@@H]3O)s1 [Example 116]
(A) ≥ 6.70

(Q) Give the value of pIC50 reported for the following: COc1cccc(F)c1-c1cc(C)ncc1C(=O)Nc1nnc(OCc2ccc3c(n2)OCCO3)s1 [Example 35]
(A) ≥ 6.70

(Q) Give the value of pIC50 reported for the following: COc1cnc(Cl)cc1-c1cc(C)ncc1C(=O)Nc1nnc(OCC23CC(F)(C2)C3)s1 [Example 78]
(A) ≥ 6.70

(Q) Give the value of pIC50 reported for the following: COc1cnc(Cl)cc1-c1cc(C)ncc1C(=O)Nc1nnc(OCC2CCNC2)s1 (racemic) [Example 175]
(A) ≥ 6.70

(Q) Give the value of pIC50 reported for the following: COc1cnc(Cl)cc1-c1cc(C)ncc1C(=O)Nc1nnc(OC[C@@]23COC[C@@H]2C3)s1 (single isomer, unassigned) [Example 230]
(A) ≥ 6.70

(Q) Give the value of pIC50 reported for the following: COc1ccccc1-c1cnccc1C(=O)Nc1nnc(OCC2CCOCC2)s1 [compound 1]
(A) 6.30 to 6.70

(Q) Give the value of pIC50 reported for the following: COc1cnc(Cl)cc1-c1cc(C)ncc1C(=O)Nc1nnc(OC[C@H]2COCCO2)s1 [Example 187]
(A) ≥ 6.70

(Q) Give the value of pIC50 reported for the following: COCc1cc(-c2cc(Cl)ncc2OC)c(C(=O)Nc2nnc(OC[C@@H]3COCCO3)s2)cn1 [Example 216]
(A) ≥ 6.70

(Q) Give the value of pIC50 reported for the following: COc1cnc(Br)cc1-c1cc(C)ncc1C(=O)Nc1nnc(OCC2CCOC2)s1 (racemic) [Example 260]
(A) ≥ 6.70

(Q) Give the value of pIC50 reported for the following: COc1ccccc1-c1cc(C)ncc1C(=O)Nc1nnc(O[C@H](C)c2ccc(Cl)cn2)s1 [Example 12]
(A) 5.00 to 6.00

(Q) Give the value of pIC50 reported for the following: COc1cnc(Cl)cc1-c1cc(C)ncc1C(=O)Nc1nnc(OCC2CNC2)s1 [Example 173]
(A) 5.00 to 6.00

(Q) Give the value of pIC50 reported for the following: COc1c(C#N)cccc1-c1cc(C)ncc1C(=O)Nc1nnc(OCc2ccc(Cl)cn2)s1 [Example 21]
(A) ≥ 6.70

(Q) Give the value of pIC50 reported for the following: COc1cnc(Cl)cc1-c1cc(C)ncc1C(=O)Nc1nnc(OCC2CCN(C)CC2)s1 [Example 178]
(A) 6.30 to 6.70

(Q) Give the value of pIC50 reported for the following: COc1cccc(F)c1-c1cc(C)ncc1C(=O)Nc1nnc(OCC2CC3(CC(O)C3)C2)s1 (stereo not shown) [Example 141]
(A) ≥ 6.70

(Q) Give the value of pIC50 reported for the following: COc1cccc(F)c1-c1cc(C)ncc1C(=O)Nc1nnc(OCc2ccc3c(n2)CCC[C@H]3O)s1 [Example 117]
(A) ≥ 6.70

(Q) Give the value of pIC50 reported for the following: COc1cnc(Cl)cc1-c1cc(C)ncc1C(=O)Nc1nnc(OCC2(C)COC2)s1 [Example 162]
(A) ≥ 6.70

(Q) Give the value of pIC50 reported for the following: CN=[S@@](C)(=O)c1ccc(COc2nnc(NC(=O)c3cnc(C)cc3-c3c(F)cccc3OC)s2)cc1 [Example 155]
(A) ≥ 6.70

(Q) Give the value of pIC50 reported for the following: COc1ccccc1-c1cc(C)ncc1C(=O)Nc1nnc(OCc2nccc3[nH]ncc23)s1 [Example 10]
(A) 6.00 to 6.30

(Q) Give the value of pIC50 reported for the following: COc1cccc(F)c1-c1cc2nc[nH]c2cc1C(=O)Nc1nnc(OC[C@H]2CC[C@H](O)CC2)s1 [Example 199]
(A) 5.00 to 6.00

(Q) Give the value of pIC50 reported for the following: COc1cnc(Cl)cc1-c1cc(C)ncc1C(=O)Nc1nnc(OCC23CC(C(C)(C)O)(C2)C3)s1 [Example 143]
(A) ≥ 6.70

(Q) Give the value of pIC50 reported for the following: COc1cccc(F)c1-c1cc(C)ncc1C(=O)Nc1nnc(OCc2ccc(C(C)O)cn2)s1 (racemic) [Example 22]
(A) ≥ 6.70

(Q) Give the value of pIC50 reported for the following: COc1cnc(Cl)cc1-c1cc(C)ncc1C(=O)Nc1nnc(OCc2ccc(Cl)cn2)s1 [Example 8]
(A) ≥ 6.70
